settings: in isopropanol, 288.15 K
quantity: solubility (mole fraction)
Quick one: just the number, no unit, thanks!

Quick check: solubility (mole fraction) of O=Cc1cccc([N+](=O)[O-])c1 ?
0.0153

---

settings: in cyclohexane, 293.15 K
quantity: solubility (mole fraction)
Field format: numeric only.

Returns the measured solubility (mole fraction) for the input compound. Input: O=Cc1cccc([N+](=O)[O-])c1
0.00283

---

settings: in acetone, 273.15 K
quantity: solubility (mole fraction)
Would you mind answering with just the numeric figure?

I have this molecule here, O=Cc1cccc([N+](=O)[O-])c1 , and I need its recorded solubility (mole fraction).
0.164

---

settings: in DMF, 278.15 K
quantity: solubility (mole fraction)
Enter the number alone.

// returns reported solubility (mole fraction) for input O=Cc1cccc([N+](=O)[O-])c1
0.368

---

settings: in ethyl acetate, 288.15 K
quantity: solubility (mole fraction)

Tell me the measured solubility (mole fraction) of O=Cc1cccc([N+](=O)[O-])c1 , please.
0.285

---

settings: in ethyl acetate, 285.65 K
quantity: solubility (mole fraction)
Format: numeric value only, no unit, no commentary.

Which value of solubility (mole fraction) has been reported for O=Cc1cccc([N+](=O)[O-])c1 in the records?
0.256

---

settings: in acetic acid, 298.15 K
quantity: solubility (mole fraction)
// response body must contain only the number

Fill in the blank: the reported solubility (mole fraction) of O=Cc1cccc([N+](=O)[O-])c1 is ____.
0.235

---

settings: in cyclohexane, 290.65 K
quantity: solubility (mole fraction)

Requested field: solubility (mole fraction). Item: O=Cc1cccc([N+](=O)[O-])c1
0.0024

---

settings: in acetonitrile, 290.65 K
quantity: solubility (mole fraction)

Return reported solubility (mole fraction); argument: O=Cc1cccc([N+](=O)[O-])c1
0.338

---

settings: in DMF, 273.15 K
quantity: solubility (mole fraction)
Field format: numeric only.

What value of solubility (mole fraction) has been reported for the following molecule? O=Cc1cccc([N+](=O)[O-])c1
0.324

---

settings: in methanol, 295.65 K
quantity: solubility (mole fraction)
The answer should be a number; do not append a unit.

Param item = O=Cc1cccc([N+](=O)[O-])c1 ; retrieve measured solubility (mole fraction).
0.295

---

settings: in acetone, 290.65 K
quantity: solubility (mole fraction)

Bench note: what solubility (mole fraction) did O=Cc1cccc([N+](=O)[O-])c1 show?
0.359

---

settings: in n-propanol, 283.15 K
quantity: solubility (mole fraction)
Just the number.

Dear colleague, I am looking for the recorded solubility (mole fraction) of the following compound: O=Cc1cccc([N+](=O)[O-])c1
0.0442

---

settings: in acetone, 283.15 K
quantity: solubility (mole fraction)

Fill in the blank: the reported solubility (mole fraction) of O=Cc1cccc([N+](=O)[O-])c1 is ____.
0.258

---

settings: in toluene, 278.15 K
quantity: solubility (mole fraction)

// returns reported solubility (mole fraction) for input O=Cc1cccc([N+](=O)[O-])c1
0.126

---

settings: in ethyl acetate, 303.15 K
quantity: solubility (mole fraction)
A bare number is all that is needed in reply.

Report solubility (mole fraction) for O=Cc1cccc([N+](=O)[O-])c1 please.
0.511

---

settings: in ethanol, 303.15 K
quantity: solubility (mole fraction)
Format: numeric value only, no unit, no commentary.

Which solubility (mole fraction) reading was recorded for the molecule O=Cc1cccc([N+](=O)[O-])c1 ?
0.183

---

settings: in DMF, 300.65 K
quantity: solubility (mole fraction)
Write the number on its own, no unit after it.

Any idea what its solubility (mole fraction) is? The compound is O=Cc1cccc([N+](=O)[O-])c1
0.627

---

settings: in ethyl acetate, 298.15 K
quantity: solubility (mole fraction)

// solubility (mole fraction) lookup, key: O=Cc1cccc([N+](=O)[O-])c1
0.425

---

settings: in acetonitrile, 273.15 K
quantity: solubility (mole fraction)
# answer = number (no unit)

Please report the recorded solubility (mole fraction) for O=Cc1cccc([N+](=O)[O-])c1 .
0.165

---

settings: in ethyl acetate, 278.15 K
quantity: solubility (mole fraction)
Just the number, please, no unit attached.

For O=Cc1cccc([N+](=O)[O-])c1 , what is its reported solubility (mole fraction)?
0.185

---

settings: in n-propanol, 300.65 K
quantity: solubility (mole fraction)
API note: the answer field is a bare number with no unit suffix.

Item O=Cc1cccc([N+](=O)[O-])c1 has what recorded solubility (mole fraction)?
0.106

---

settings: in n-butanol, 288.15 K
quantity: solubility (mole fraction)

Consider the compound O=Cc1cccc([N+](=O)[O-])c1 and give its measured solubility (mole fraction).
0.0466

---

settings: in cyclohexane, 285.65 K
quantity: solubility (mole fraction)
Just the number.

Give its solubility (mole fraction) value. Item: O=Cc1cccc([N+](=O)[O-])c1
0.00175

---

settings: in acetonitrile, 288.15 K
quantity: solubility (mole fraction)
In your answer, state the number alone without any accompanying words.

Look up solubility (mole fraction): O=Cc1cccc([N+](=O)[O-])c1
0.307

---

settings: in acetonitrile, 278.15 K
quantity: solubility (mole fraction)
Write the number on its own, no unit after it.

Consider the compound O=Cc1cccc([N+](=O)[O-])c1 and give its measured solubility (mole fraction).
0.204

---

settings: in isopropanol, 303.15 K
quantity: solubility (mole fraction)
Lab note: jot the number down without any unit.

Data request, read-out solubility (mole fraction), for O=Cc1cccc([N+](=O)[O-])c1
0.035

---

settings: in ethanol, 285.65 K
quantity: solubility (mole fraction)
Just the number, please, no unit after it.

Need solubility (mole fraction), item O=Cc1cccc([N+](=O)[O-])c1
0.0736

---

settings: in acetic acid, 290.65 K
quantity: solubility (mole fraction)

If you can, please state the reported solubility (mole fraction) value of O=Cc1cccc([N+](=O)[O-])c1 .
0.159

---

settings: in methanol, 278.15 K
quantity: solubility (mole fraction)
Keep the answer to the number alone.

Look up solubility (mole fraction): O=Cc1cccc([N+](=O)[O-])c1
0.118

---

settings: in DMF, 303.15 K
quantity: solubility (mole fraction)
I only need the number, thanks.

Entry O=Cc1cccc([N+](=O)[O-])c1 : reported solubility (mole fraction) = ?
0.66

---

settings: in acetone, 295.65 K
quantity: solubility (mole fraction)
No unit in the answer, please; the number alone is enough.

Find the recorded solubility (mole fraction) belonging to O=Cc1cccc([N+](=O)[O-])c1 and report it.
0.445

---

settings: in cyclohexane, 300.65 K
quantity: solubility (mole fraction)
Answer with a number only.

Which solubility (mole fraction) value is on record for O=Cc1cccc([N+](=O)[O-])c1 ?
0.00456

---

settings: in n-butanol, 293.15 K
quantity: solubility (mole fraction)
Number only, please.

I have this compound here, O=Cc1cccc([N+](=O)[O-])c1 , and I need its recorded solubility (mole fraction).
0.0596

---

settings: in acetic acid, 303.15 K
quantity: solubility (mole fraction)
Please respond with just the number, no unit label.

Find the recorded solubility (mole fraction) belonging to O=Cc1cccc([N+](=O)[O-])c1 and report it.
0.304

---

settings: in acetonitrile, 295.65 K
quantity: solubility (mole fraction)
Reply with the value as a number alone.

solubility (mole fraction) for O=Cc1cccc([N+](=O)[O-])c1 ?
0.409

---

settings: in n-propanol, 303.152 K
quantity: solubility (mole fraction)
Form: value (number only, do not type unit).

Please give the measured solubility (mole fraction) for this compound: O=Cc1cccc([N+](=O)[O-])c1
0.12

---

settings: in ethanol, 295.65 K
quantity: solubility (mole fraction)
// no unit, no text: just the number

So what's the measured solubility (mole fraction) for this one? O=Cc1cccc([N+](=O)[O-])c1
0.125

---

settings: in n-propanol, 273.15 K
quantity: solubility (mole fraction)
Number only, no unit.

Which solubility (mole fraction) reading was recorded for the molecule O=Cc1cccc([N+](=O)[O-])c1 ?
0.0254

---

settings: in toluene, 298.15 K
quantity: solubility (mole fraction)
// return a plain number; no unit text

Looking for the measured solubility (mole fraction) of O=Cc1cccc([N+](=O)[O-])c1 , can you help?
0.347

---

settings: in acetone, 293.15 K
quantity: solubility (mole fraction)
Give your answer as a number; write no unit.

Look up solubility (mole fraction) for this compound: O=Cc1cccc([N+](=O)[O-])c1
0.401

---

settings: in ethanol, 298.15 K
quantity: solubility (mole fraction)
Respond with the number and no other words.

Look up solubility (mole fraction): O=Cc1cccc([N+](=O)[O-])c1
0.141

---

settings: in ethyl acetate, 295.65 K
quantity: solubility (mole fraction)
I only need the number, thanks.

Item under review: O=Cc1cccc([N+](=O)[O-])c1 . Reported solubility (mole fraction)?
0.385

---

settings: in toluene, 280.65 K
quantity: solubility (mole fraction)
Lab note: record the figure alone, no unit after it.

Which measured solubility (mole fraction) value corresponds to O=Cc1cccc([N+](=O)[O-])c1 ?
0.144
